# EXPERIMENTAL_TARGET: Rho-associated protein kinase 1 (Homo sapiens); also: in the data inactive means no Kd found up to 30 µM
# Sequence (Q13464 whole entry): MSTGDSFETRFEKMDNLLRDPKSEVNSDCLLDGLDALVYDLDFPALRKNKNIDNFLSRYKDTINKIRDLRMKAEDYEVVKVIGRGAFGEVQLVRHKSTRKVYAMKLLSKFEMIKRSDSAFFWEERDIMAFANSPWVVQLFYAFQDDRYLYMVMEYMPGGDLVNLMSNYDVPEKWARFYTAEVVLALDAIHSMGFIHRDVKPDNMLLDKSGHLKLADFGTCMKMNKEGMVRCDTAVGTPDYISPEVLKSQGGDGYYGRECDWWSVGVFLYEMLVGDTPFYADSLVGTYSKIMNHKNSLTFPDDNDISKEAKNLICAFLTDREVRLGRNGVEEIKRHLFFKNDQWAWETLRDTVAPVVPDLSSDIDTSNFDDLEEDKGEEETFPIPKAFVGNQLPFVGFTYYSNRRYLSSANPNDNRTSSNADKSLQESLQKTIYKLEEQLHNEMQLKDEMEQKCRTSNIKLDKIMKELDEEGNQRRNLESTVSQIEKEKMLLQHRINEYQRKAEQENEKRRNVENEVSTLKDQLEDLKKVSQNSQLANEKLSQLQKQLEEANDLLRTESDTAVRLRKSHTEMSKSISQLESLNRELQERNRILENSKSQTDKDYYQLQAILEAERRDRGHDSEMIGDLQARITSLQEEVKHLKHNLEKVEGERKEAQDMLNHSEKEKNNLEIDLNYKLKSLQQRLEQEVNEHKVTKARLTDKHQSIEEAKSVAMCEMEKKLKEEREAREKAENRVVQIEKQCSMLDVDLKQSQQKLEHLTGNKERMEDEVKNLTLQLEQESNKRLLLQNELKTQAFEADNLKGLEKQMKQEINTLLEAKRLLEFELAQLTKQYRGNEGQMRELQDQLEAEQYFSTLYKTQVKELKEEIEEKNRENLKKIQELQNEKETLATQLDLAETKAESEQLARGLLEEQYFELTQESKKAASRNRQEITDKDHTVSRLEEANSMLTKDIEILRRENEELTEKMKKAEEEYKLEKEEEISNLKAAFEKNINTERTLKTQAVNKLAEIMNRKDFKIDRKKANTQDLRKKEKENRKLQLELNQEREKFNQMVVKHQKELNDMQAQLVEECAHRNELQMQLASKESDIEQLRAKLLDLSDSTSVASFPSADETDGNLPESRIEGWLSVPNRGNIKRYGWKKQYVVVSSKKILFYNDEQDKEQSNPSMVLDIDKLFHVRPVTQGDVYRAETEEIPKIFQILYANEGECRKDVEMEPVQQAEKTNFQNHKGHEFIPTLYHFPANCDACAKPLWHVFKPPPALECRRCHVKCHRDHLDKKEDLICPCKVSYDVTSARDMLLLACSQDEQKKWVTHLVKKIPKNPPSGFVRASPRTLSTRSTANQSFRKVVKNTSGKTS
The source made the active and inactive calls.
Would you mind answering with one of these outcomes? active, inactive

As a guide, the following entries are already answered.
{"COMPOUND": "C[C@@H]1COC(Nc2ccc3ncnc(Nc4ccc(OCc5nccs5)c(Cl)c4)c3c2)=N1", "LABEL_CLASS": "inactive"}
{"COMPOUND": "CC[C@@](C)(Nc1ccnc(-c2c[nH]c3ncccc23)n1)C(=O)NCC(F)(F)F", "LABEL_CLASS": "active"}
{"COMPOUND": "Cc1c(NC(=O)OC[C@@H]2COCCN2)cn2ncnc(Nc3ccc4c(cnn4Cc4cccc(F)c4)c3)c12", "LABEL_CLASS": "inactive"}
{"COMPOUND": "COc1ccc2c(OCc3nnc4ccc(-c5ccccc5)nn34)ccnc2c1", "LABEL_CLASS": "inactive"}
{"COMPOUND": "CCc1nc(C(N)=O)c(Nc2ccc(N3CCC(N4CCN(C)CC4)CC3)c(OC)c2)nc1NC1CCOCC1", "LABEL_CLASS": "inactive"}
{"COMPOUND": "CCOc1ccn(-c2ccc(F)cc2)c(=O)c1C(=O)Nc1ccc(Oc2ccnc(N)c2Cl)c(F)c1", "LABEL_CLASS": "inactive"}
{"COMPOUND": "COc1cc2ncnc(Nc3ccc(O)cc3)c2cc1OC", "LABEL_CLASS": "inactive"}
{"COMPOUND": "CCc1cc2c(cc1N1CCC(N3CCOCC3)CC1)C(C)(C)c1[nH]c3cc(C#N)ccc3c1C2=O", "LABEL_CLASS": "inactive"}
{"COMPOUND": "Cc1cc(C(=O)Nc2cc(Oc3ccc4nc(NC(=O)C5CC5)cn4n3)ccc2C)n(C)n1", "LABEL_CLASS": "inactive"}
{"COMPOUND": "Cc1c(Cn2c(C)nc3c(C(=O)O)cc(N4CCOCC4)cc32)cccc1C(F)(F)F", "LABEL_CLASS": "inactive"}

Query block: // param item: `CC1(COc2ccc3c(c2)ncn3-c2ccc3cccc(N4CCC(N)CC4)c3n2)COC1` ; yields the recorded call
Result block: inactive

---

# EXPERIMENTAL_TARGET: Mitogen-activated protein kinase kinase kinase 2 (Homo sapiens); also: in the data inactive means no Kd found up to 30 µM
# Sequence (Q9Y2U5 whole entry): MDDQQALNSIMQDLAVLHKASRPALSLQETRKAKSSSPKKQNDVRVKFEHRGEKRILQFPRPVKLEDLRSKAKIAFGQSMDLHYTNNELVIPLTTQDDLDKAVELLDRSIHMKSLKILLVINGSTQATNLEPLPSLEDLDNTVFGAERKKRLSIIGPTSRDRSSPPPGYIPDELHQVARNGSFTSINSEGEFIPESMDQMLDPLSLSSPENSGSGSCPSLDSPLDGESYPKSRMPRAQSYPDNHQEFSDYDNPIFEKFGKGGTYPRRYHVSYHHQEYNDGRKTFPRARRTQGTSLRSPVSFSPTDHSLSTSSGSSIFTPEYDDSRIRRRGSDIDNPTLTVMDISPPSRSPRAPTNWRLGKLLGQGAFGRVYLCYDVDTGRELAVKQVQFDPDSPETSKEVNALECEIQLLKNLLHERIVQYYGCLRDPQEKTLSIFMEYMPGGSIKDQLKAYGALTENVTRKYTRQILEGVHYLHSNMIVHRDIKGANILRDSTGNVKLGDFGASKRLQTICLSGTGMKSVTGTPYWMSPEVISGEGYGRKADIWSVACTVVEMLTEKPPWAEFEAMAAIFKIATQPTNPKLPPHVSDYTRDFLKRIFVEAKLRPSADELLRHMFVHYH
Active and inactive are the calls of the source.
A correct response names exactly one class from true (1) = active, false (0) = inactive

Consider the following illustrative entries.
{"COMPOUND": "O=S(=O)(c1cccc2c(O)nccc12)N1CCCNCC1 [HYDROXYFASUDIL]", "LABEL_CLASS": "false (0)"}
{"COMPOUND": "CCc1nc(C(N)=O)c(Nc2ccc(N3CCC(N4CCN(C)CC4)CC3)c(OC)c2)nc1NC1CCOCC1", "LABEL_CLASS": "true (1)"}
{"COMPOUND": "CC1(COc2ccc3c(c2)ncn3-c2ccc3cccc(N4CCC(N)CC4)c3n2)COC1", "LABEL_CLASS": "false (0)"}
{"COMPOUND": "Cn1c(=O)n(-c2ccc(C(C)(C)C#N)cc2)c2c3cc(-c4cnc5ccccc5c4)ccc3ncc21", "LABEL_CLASS": "false (0)"}
{"COMPOUND": "CCOc1ccn(-c2ccc(F)cc2)c(=O)c1C(=O)Nc1ccc(Oc2ccnc(N)c2Cl)c(F)c1", "LABEL_CLASS": "false (0)"}
{"COMPOUND": "CNC(=O)c1cccc(-c2ccc3c(N4CCOC[C@@H]4C)nc(N4CCOC[C@@H]4C)nc3n2)c1", "LABEL_CLASS": "false (0)"}

Query block: Identify the outcome logged in this assay for the compound shown: `COc1ccc2c(OCc3nnc4ccc(-c5ccccc5)nn34)ccnc2c1`
Result block: false (0)

Query block: Assay result, entry `COc1cc2ncnc(Nc3ccc(O)cc3)c2cc1OC` — outcome?
Result block: false (0)
